Test system: Rattus norvegicus
Test: Natriuretic activity in rat assessed as per cage at 81 mg/kg, po
Assay type: functional
measured_property: Activity (mEq)
Give bare numbers, in mEq.

Some entries whose results are on file:
• CC1(c2ccc(Br)cc2)Cc2cc(OCC(=O)O)c(Cl)c(Cl)c2C1=O (stereo not given) = 0.42
• CCC1(c2ccccc2)Cc2cc(OCC(=O)O)c(Cl)c(Cl)c2C1=O (stereo not given) = 1.34
• CC1(c2ccc(N)cc2)Cc2cc(OCC(=O)O)c(Cl)c(Cl)c2C1=O (stereo not given) = 1.34
• CC(=O)c1ccc(C2(C)Cc3cc(OCC(=O)O)c(Cl)c(Cl)c3C2=O)cc1 (stereo not given) = 1.63
• O=C(O)COc1cc2c(c(Cl)c1Cl)C(=O)C(c1ccccc1)(C1CCCC1)C2 (stereo not given) = 0.35
• CC1(c2ccc(CN)cc2)Cc2cc(OCC(=O)[O-])c(Cl)c(Cl)c2C1=O.[Na+] (stereo not given) = 0.19
• CC1(c2ccc(F)cc2)Cc2cc(OCC(=O)O)c(Cl)c(Cl)c2C1=O (stereo not given) = 1.73
• NS(=O)(=O)c1cc(C(=O)O)c(NCc2ccco2)cc1Cl [FUROSEMIDE] = 2.44
• CC1(c2cccs2)Cc2cc(OCC(=O)O)c(Cl)c(Cl)c2C1=O (stereo not given) = 1.77

In the following, a different compound is considered.
# returns recorded Activity (system: Rattus norvegicus) for O=C(O)COc1cc2c(c(Cl)c1Cl)C(=O)C1(c3ccccc3)CCCCC21 (stereo not given)
1.17

----------
System: Canis familiaris
Test: Diuretic activity in dog assessed as […] urine volume at 5 mg/kg, iv relative to control
Type: functional, Canis lupus familiaris
// assign 1 (yes) if Activity falls strictly below 8 mL, else 0 (no) (ties count as 0 (no))

Please review the entries below; each comes with its answer.
* NS(=O)(=O)c1cc2c(cc1Cl)NCNS2(=O)=O [HYDROCHLOROTHIAZIDE] | 1 (yes)
* CC1(c2cccs2)Cc2cc(OCC(=O)O)c(Cl)c(Cl)c2C1=O (stereo not given) | 1 (yes)
* CC1(c2ccc(N)cc2)Cc2cc(OCC(=O)O)c(Cl)c(Cl)c2C1=O (stereo not given) | 0 (no)

Now consider a different compound.
Lab log: compare recorded Activity with 8 mL; is it strictly lower for "O=C(O)COc1cc2c(c(Cl)c1Cl)C(=O)C(c1ccccc1)(c1ccccc1)C2" ?
1 (yes)

----------
Tested on: Canis familiaris
Experiment: Diuretic activity in dog assessed as sodium level in urine per min at 5 mg/kg, iv relative to control
Type: functional, Canis lupus familiaris
measured_property: Activity (µEq/min)
Give bare numbers, in µEq/min.

Some entries whose results are on file:
- CC1(c2ccc(O)cc2)Cc2cc(OCC(=O)O)c(Cl)c(Cl)c2C1=O (stereo not given): 1260
- CCC1(c2ccccc2)Cc2cc(OCC(=O)O)c(Cl)c(Cl)c2C1=O (stereo not given): 431
- O=C(O)COc1cc2c(c(Cl)c1Cl)C(=O)C(c1ccccc1)(C1CCCC1)C2 (stereo not given): 11
- CC1(c2ccc(N)cc2)Cc2cc(OCC(=O)O)c(Cl)c(Cl)c2C1=O (stereo not given): 1130
- O=C(O)COc1cc2c(c(Cl)c1Cl)C(=O)C(c1ccccc1)(c1ccccc1)C2: 44

For the 5 molecules below, give their Activity values.
1. CC1(c2ccc(F)cc2)Cc2cc(OCC(=O)O)c(Cl)c(Cl)c2C1=O (stereo not given)
2. CC1(c2ccc(Br)cc2)Cc2cc(OCC(=O)O)c(Cl)c(Cl)c2C1=O (stereo not given)
3. Cc1c(OCC(=O)O)cc2c(c1Cl)C(=O)C(C)(c1ccccc1)C2 (stereo not given)
4. NS(=O)(=O)c1cc2c(cc1Cl)NCNS2(=O)=O [HYDROCHLOROTHIAZIDE]
5. CC1(c2ccccc2)Cc2cc(OCc3nnn[nH]3)c(Cl)c(Cl)c2C1=O (stereo not given)

[352, 96, 226, 166, 279]
